assay: chemical genetic growth profiling, strain panel (AID 1159580);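 note: tested at 20 µM; growth read once vehicle control cultures reached saturation at 30 °C; 1 = growth at the plate median or of vehicle wells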; conditions: S. cerevisiae deletion strains, growth OD, locus YMR078C, strain ctf18, stronger effect = lower value
The whole screen tested about 5,500 compounds, of which about 2,000 (36%) were called active. Roughly 18% stayed inconclusive and do not appear here. The list shows a part of the results.
quantity: normalized growth
One number for each entry.

# example entries with known answers
>  <compound>
CC(=O)O[C@H]1CC[C@@]2(C)C(=CCC3C2CC[C@]2(C)C(=O)CCC32)C1 (stereo not given in full)

>  <normalized growth>
1.01

$$$$
>  <compound>
CC12CCC3C(CC=C4CC(O)CCC43C)C1CCC2=O (stereo not given)

>  <normalized growth>
1.02

$$$$
>  <compound>
CC[C@@H](C(=O)[C@@H](C)[C@@H](O)[C@H](C)[C@@H]1O[C@@H]([C@@H](CC)C(=O)O)CC[C@@H]1C)[C@H]1OC2(C=C[C@@H](O)[C@]3(CC[C@@](C)([C@H]4CC[C@](O)(CC)[C@H](C)O4)O3)O2)[C@H](C)C[C@@H]1C (stereo not given in full)

>  <normalized growth>
0.937

$$$$
>  <compound>
CC1CC2C(C(O)CC3(C)C2CCC3(O)C(=O)COC(=O)CCC(=O)O)C2(C)C=CC(=O)C=C12 (stereo not given)

>  <normalized growth>
0.979

$$$$
>  <compound>
C=CCN1CC[C@]23c4c5ccc(O)c4OC2C(=O)CC[C@@]3(O)[C@H]1C5 (stereo not given in full)

>  <normalized growth>
1

$$$$

For each of the compounds below, state normalized growth.
1. S=c1[nH]c2ccccc2s1
2. O=C(O)P(=O)(O)O
3. CC[C@]12CCCN3CCc4c(n(c5ccccc45)C(=O)C1)[C@@H]32
4. CCOC(N)=O

A:
1: 1; 2: 0.956; 3: 0.973; 4: 1.01

Q: So what does the record say about normalized growth for O=C(O)c1cc(O)c(O)c(O)c1 ?
A: 1.03

###

experiment: chemical genetic growth profiling, strain panel (AID 1159580); conditions: S. cerevisiae deletion strains, growth OD, locus YDR195W, strain ref2
About 2,000 (36%) of roughly 5,500 compounds were called active. About 18% were inconclusive and are not listed. No stated cut-off is given here; in the data, active means normalized growth mostly below about 0.91 (no sharp cut-off); inconclusive means no clear call, values can overlap the other calls; inactive means mostly above about 0.92. The list shows a part of the results.
// allowed return values: TRUE for active, FALSE for inactive

Use the examples below as a reference point.
>  <structure>
O=c1cccc2n1C[C@H]1CNCC2C1

>  <group>
FALSE

$$$$
>  <structure>
CCn1cc(C(=O)O)c(=O)c2cc3c(cc21)OCO3

>  <group>
FALSE

$$$$
>  <structure>
CCn1cc(C(=O)O)c(=O)c2ccc(C)nc21

>  <group>
TRUE

$$$$
>  <structure>
C=CC1=C(C)/C(=C/c2[nH]c(Cc3[nH]c(/C=C4\NC(=O)C(C)=C4C=C)c(C)c3CCC(=O)O)c(CCC(=O)O)c2C)NC1=O

>  <group>
FALSE

$$$$
>  <structure>
CCn1cc(C(=O)O)c(=O)c2cnc(N3CCCC3)nc21

>  <group>
FALSE

$$$$

Q: Given S=c1[nH]c2ccccc2s1 , state the outcome it received in this test.
A: TRUE

Q: Given CCn1cc(C(=O)O)c(=O)c2cnc(N3CCNCC3)nc21 , state the outcome it received in this test.
A: FALSE

###

experiment: chemical genetic growth profiling, strain panel (AID 1159580); conditions: S. cerevisiae deletion strains, growth OD, locus YCR088W, strain abp1
The whole screen tested about 5,500 compounds, of which about 2,000 (36%) were called active. Inconclusive results (about 18%) are left out. Rule as the data show it: active = normalized growth mostly below about 0.91 (no sharp cut-off); inconclusive = no clear call, values can overlap the other calls; inactive = mostly above about 0.92. This is one part of the list.
// allowed return values: active, inactive

Q: Given C=CCN1CC[C@]23c4c5ccc(O)c4OC2C(=O)CC[C@@]3(O)[C@H]1C5 (stereo not given in full) , state the outcome it received in this test.
A: inactive

Q: Given C[C@@H]1C[C@@H]([C@H](O)CC2CC(=O)NC(=O)C2)C(=O)[C@@H](C)C1 , state the outcome it received in this test.
A: active

Q: Given CCOC(N)=O , state the outcome it received in this test.
A: inactive

Q: Given CC[C@]1(O)CC2CN(CCc3c([nH]c4ccccc34)[C@@](C(=O)OC)(c3cc4c(cc3OC)N(C=O)[C@H]3[C@@](O)(C(=O)OC)[C@H](OC(C)=O)[C@]5(CC)C=CCN6CC[C@]43[C@@H]65)C2)C1 (stereo not given in full) , state the outcome it received in this test.
A: inactive

###

test: chemical genetic growth profiling, strain panel (AID 1159580); conditions: S. cerevisiae deletion strains, growth OD, locus YDL035C, strain GPR1
The whole screen tested about 5,500 compounds, of which about 2,000 (36%) were called active. Inconclusive results (about 18%) are left out. Cut-off read from the data, not from the text of the source: active = normalized growth mostly below about 0.91 (no sharp cut-off); inconclusive = no clear call, values can overlap the other calls; inactive = mostly above about 0.92. The list shows a part of the results.
// allowed return values: 1.0 = active, 0.0 = inactive

Use the examples below as a reference point.
>  <molecule>
COC(=O)[C@H]1[C@H]2C[C@@H]3c4[nH]c5cc(OC)ccc5c4CCN3C[C@H]2C[C@@H](OC(=O)c2cc(OC)c(OC)c(OC)c2)[C@@H]1OC

>  <group>
0.0

$$$$
>  <molecule>
CN=C1CN(O)C(c2ccccc2)=c2cc(Cl)ccc2=N1

>  <group>
0.0

$$$$
>  <molecule>
COS(C)(=O)=O

>  <group>
0.0

$$$$

Q: Given CCn1cc(C(=O)O)c(=O)c2ccc(C)nc21 , state the outcome it received in this test.
A: 0.0

Q: Given CCCN(CCC)C(=O)C(CCC(=O)O)NC(=O)c1ccccc1 (centres undefined) , state the outcome it received in this test.
A: 0.0

Q: Given CCOP(=S)(OCC)Oc1ccc2c(C)c(Cl)c(=O)oc2c1 , state the outcome it received in this test.
A: 0.0

###

Record form. Attribute: normalized growth. Fill in for each entry.
experiment: chemical genetic growth profiling, strain panel (AID 1159580);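 note: tested at 20 µM; growth read once vehicle control cultures reached saturation at 30 °C; 1 = growth at the plate median or of vehicle wells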; settings: S. cerevisiae deletion strains, growth OD, locus YOR070C, strain gyp1, stronger effect = lower value
In all, about 5,500 compounds went through this assay and about 2,000 (36%) were called active. About 18% were inconclusive and are not listed. The list shows a part of the results.
One number for each entry.

# example entries with known answers
>  <molecule>
CC12CCC(CC1)C(C)(C)O2

>  <quantity>
normalized growth

>  <observed>
0.971

$$$$
>  <molecule>
Oc1ccc(/C=C/c2cc(O)cc(O)c2)cc1

>  <quantity>
normalized growth

>  <observed>
0.986

$$$$
>  <molecule>
Cc1ccc(C(C)C)cc2c(C)ccc1-2

>  <quantity>
normalized growth

>  <observed>
0.994

$$$$
>  <molecule>
CC[C@]12CCCN3CCc4c(n(c5ccccc45)[C@](O)(C(=O)OC)C1)[C@@H]32

>  <quantity>
normalized growth

>  <observed>
0.995

$$$$
>  <molecule>
O=C(O)CCC(=O)c1ccc(-c2ccccc2)cc1

>  <quantity>
normalized growth

>  <observed>
0.988

$$$$

For each of the molecules below, state normalized growth.
1. CC[C@]12CCCN3CCc4c(n(c5ccccc45)C(=O)C1)[C@@H]32
2. O=C(/C=C/c1ccc(O)c(O)c1)O[C@@H]1C[C@](O)(C(=O)O)C[C@@H](O)[C@H]1O

A:
1
0.985

For each of the molecules below, state normalized growth.
1. C=CCN1CC[C@]23c4c5ccc(O)c4OC2C(=O)CC[C@@]3(O)[C@H]1C5 (some centres undefined)
2. COC(=O)[C@H]1[C@H]2C[C@@H]3c4[nH]c5cc(OC)ccc5c4CCN3C[C@H]2C[C@@H](OC(=O)c2cc(OC)c(OC)c(OC)c2)[C@@H]1OC

A:
0.964
0.983

###

experiment: chemical genetic growth profiling, strain panel (AID 1159580);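 note: tested at 20 µM; growth read once vehicle control cultures reached saturation at 30 °C; 1 = growth at the plate median or of vehicle wells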; conditions: S. cerevisiae deletion strains, growth OD, locus YJL187C, strain SWE1 (second series), stronger effect = lower value
In all, about 5,500 compounds went through this assay and about 2,000 (36%) were called active. Not shown: some 18% with an inconclusive outcome. The list shows a part of the results.
quantity: normalized growth
Give bare numbers.

For each of the compounds below, state normalized growth.
1. CN(Cc1cc(Br)cc(Br)c1N)C1CCCCC1
2. CCCNC(C)C(=O)Nc1ccccc1C (stereo not drawn)
3. c1ccc2[nH]c(-c3cscn3)nc2c1

A:
[0.974, 1.02, 0.974]

###

experiment: chemical genetic growth profiling, strain panel (AID 1159580);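 note: tested at 20 µM; growth read once vehicle control cultures reached saturation at 30 °C; 1 = growth at the plate median or of vehicle wells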; settings: S. cerevisiae deletion strains, growth OD, locus YCL029C, strain bik1, stronger effect = lower value
About 2,000 (36%) of roughly 5,500 compounds were called active. Roughly 18% stayed inconclusive and do not appear here. The list shows a part of the results.
normalized growth strictly less than 1 = 1. Otherwise 0.

Use the examples below as a reference point.
>  <compound>
C[C@@H]1C[C@@H]([C@H](O)CC2CC(=O)NC(=O)C2)C(=O)[C@@H](C)C1

>  <group>
1

$$$$
>  <compound>
COc1cc(O)cc(/C=C/c2ccccc2)c1

>  <group>
1

$$$$
>  <compound>
C[C@@]12C(=O)OC(=O)[C@]1(C)C1CCC2O1

>  <group>
1

$$$$
>  <compound>
O=C1N=C(O)CN1/N=C\c1ccc(-c2ccc([N+](=O)[O-])cc2)o1

>  <group>
0

$$$$

Q: In the record for COc1ccc2c(c1O)-c1c(OC)c(OC)cc3c1[C@H](C2)N(C)CC3 , is normalized growth less than 1?
A: 0

Q: In the record for COc1ccc(/C=C/c2cc(O)cc(O)c2)cc1 , is normalized growth less than 1?
A: 1

Q: In the record for COC(=O)[C@H]1[C@H]2C[C@@H]3c4[nH]c5cc(OC)ccc5c4CCN3C[C@H]2C[C@@H](OC(=O)c2cc(OC)c(OC)c(OC)c2)[C@@H]1OC , is normalized growth less than 1?
A: 0

Q: In the record for c1cc2c(cc1[C@H]1OC[C@H]3[C@@H]1CO[C@H]3c1ccc3c(c1)OCO3)OCO2 , is normalized growth less than 1?
A: 1

Q: In the record for C=CCc1cc(OC)c2c(c1OC)OCO2 , is normalized growth less than 1?
A: 1
